- target-system: hLAT2 (Homo sapiens)
- Construct: expressed in transfected cells; host or cells: KB or LLCPK cells, tetracycline/doxycycline-inducible
- Sequence (Q9UHI5 whole entry, one chain of several): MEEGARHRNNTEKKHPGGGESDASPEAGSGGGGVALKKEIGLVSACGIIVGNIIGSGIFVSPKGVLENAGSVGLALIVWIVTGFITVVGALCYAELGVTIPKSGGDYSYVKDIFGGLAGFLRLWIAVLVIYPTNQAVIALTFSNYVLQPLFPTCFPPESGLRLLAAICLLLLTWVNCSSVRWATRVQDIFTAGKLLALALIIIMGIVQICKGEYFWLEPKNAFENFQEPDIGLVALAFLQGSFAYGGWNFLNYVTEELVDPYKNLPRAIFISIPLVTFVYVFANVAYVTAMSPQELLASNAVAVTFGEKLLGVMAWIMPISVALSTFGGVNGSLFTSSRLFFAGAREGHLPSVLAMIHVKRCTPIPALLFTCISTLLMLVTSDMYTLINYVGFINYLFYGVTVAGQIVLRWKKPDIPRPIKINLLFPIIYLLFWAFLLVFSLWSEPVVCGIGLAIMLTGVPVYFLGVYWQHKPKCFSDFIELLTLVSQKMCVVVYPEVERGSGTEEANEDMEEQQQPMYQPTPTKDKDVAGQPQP
- assay-comment: LAT2 uptake inhibition assay, radiolabeled competition uptake with [3H]-leucine
- Type: cell-based
- test-settings: KB cells; read-out: IC50, concentration of test compound at which the [3H]-Leu was inhibited by 50%
Property: IC50; scope: individual compounds

{"compound": "Cc1ccc(C(=O)N[C@@H](CC(C)C)C(=O)C2(C)CO2)cc1C[C@H](N)CC(=O)O (stereo in doubt) [Compound 63]", "IC50": "< 100 µM"}

Form field: reported IC50 of Cc1ccc(CBr)cc1C[C@H](N)CC(=O)O [Compound 57]
< 100 µM

###

- System: MV411
- assay-comment: cells
- Type: cell-based
- test-settings: Homo sapiens, MV4-11, read-out: IC50 (in vitro toxicity)
pIC50: −log10 of the molar value.
Collected pIC50 values appear next to each entry.

Look over these answered cases.
{"compound": "CCc1ccc(N(CCCl)CCCl)cc1C[C@H](N)CC(=O)O [Compound 40]", "pIC50": "> 4.00"}
{"compound": "Cc1ccc(N(CCCl)CCCl)c(C[C@H](N)CC(=O)O)c1 [Compound 50]", "pIC50": "> 4.00"}
{"compound": "COc1ccc(N(CCCl)CCCl)c(C[C@H](N)CC(=O)O)c1 [Compound 51]", "pIC50": "> 4.00"}
{"compound": "COc1ccc(N(CCCl)CCCl)cc1C[C@H](N)CC(=O)O [Compound 7]", "pIC50": "> 4.00"}

Query: pIC50; subject: Cc1ccc(N(CCCl)CCCl)cc1C[C@H](N)CC(=O)O [Compound 5]
> 4.00

###

- Tested on: D283
- assay-comment: cells
- Type: cell-based
- test-settings: D283, read-out: IC50 (in vitro toxicity)
measured-property: IC50

Example molecules with recorded IC50:
{"smiles-structure": "CCc1ccc(N(CCCl)CCCl)cc1C[C@H](N)CC(=O)O", "IC50": "< 100 µM"}
{"smiles-structure": "Cc1ccc(N(CCCl)CCCl)c(C[C@H](N)CC(=O)O)c1", "IC50": "< 100 µM"}
{"smiles-structure": "Cc1ccc(N(CCCl)CCCl)cc1C[C@H](N)CC(=O)O", "IC50": "< 100 µM"}
{"smiles-structure": "COc1ccc(N(CCCl)CCCl)c(C[C@H](N)CC(=O)O)c1", "IC50": "< 100 µM"}

Let us move to another entry and its IC50.
Item COc1ccc(N(CCCl)CCCl)cc1C[C@H](N)CC(=O)O with D283 - IC50?
< 100 µM

###

- target-system: hLAT1 (Homo sapiens)
- Construct: expressed in transfected cells; host or cells: LLCPK cells, tetracycline/doxycycline-inducible, boosted with sodium butyrate
- Sequence (Q01650 whole entry): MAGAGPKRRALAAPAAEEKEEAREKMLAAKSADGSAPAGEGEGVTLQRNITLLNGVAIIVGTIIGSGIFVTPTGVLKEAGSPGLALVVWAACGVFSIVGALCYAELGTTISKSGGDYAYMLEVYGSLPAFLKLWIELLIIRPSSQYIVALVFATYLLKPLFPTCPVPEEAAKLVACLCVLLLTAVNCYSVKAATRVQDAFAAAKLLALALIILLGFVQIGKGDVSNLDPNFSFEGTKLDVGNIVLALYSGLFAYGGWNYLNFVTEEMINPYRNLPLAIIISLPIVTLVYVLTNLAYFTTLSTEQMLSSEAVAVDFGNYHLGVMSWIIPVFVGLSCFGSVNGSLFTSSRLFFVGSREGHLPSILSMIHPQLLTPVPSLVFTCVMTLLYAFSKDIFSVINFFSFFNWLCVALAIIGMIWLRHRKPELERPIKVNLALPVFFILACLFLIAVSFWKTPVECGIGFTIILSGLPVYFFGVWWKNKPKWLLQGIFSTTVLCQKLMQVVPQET
- Sequence (P08195 whole entry partner): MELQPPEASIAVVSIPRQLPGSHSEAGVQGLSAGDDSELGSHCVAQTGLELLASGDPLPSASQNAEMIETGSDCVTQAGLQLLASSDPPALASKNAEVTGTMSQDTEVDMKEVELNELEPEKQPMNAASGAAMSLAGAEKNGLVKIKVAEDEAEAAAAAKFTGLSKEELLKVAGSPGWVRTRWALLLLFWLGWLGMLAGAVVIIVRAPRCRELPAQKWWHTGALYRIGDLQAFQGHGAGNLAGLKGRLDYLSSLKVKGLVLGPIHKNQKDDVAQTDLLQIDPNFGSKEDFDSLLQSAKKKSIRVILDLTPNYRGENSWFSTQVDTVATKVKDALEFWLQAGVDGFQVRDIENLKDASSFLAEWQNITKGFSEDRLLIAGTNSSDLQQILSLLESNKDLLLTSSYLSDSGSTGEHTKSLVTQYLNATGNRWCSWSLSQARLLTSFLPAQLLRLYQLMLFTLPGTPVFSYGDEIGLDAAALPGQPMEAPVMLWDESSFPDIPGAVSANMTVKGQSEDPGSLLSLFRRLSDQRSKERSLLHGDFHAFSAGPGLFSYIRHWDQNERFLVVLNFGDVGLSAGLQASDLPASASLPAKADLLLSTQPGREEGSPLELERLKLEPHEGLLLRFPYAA
- assay-comment: LAT1 uptake inhibition assay, radiolabeled competition uptake with [3H]-Gabapentin
- Assay type: cell-based
measured-property: IC50

Observe how each entry below is paired with its result.
{"smiles-structure": "Cc1ccc(N(CCO)CCCl)cc1C[C@H](N)CC(=O)O", "target-system": "hLAT1 (Homo sapiens)", "observed-measurement": "< 100 µM"}
{"smiles-structure": "CCOc1ccc(N(CCCl)CCCl)cc1C[C@H](N)CC(=O)O", "target-system": "hLAT1 (Homo sapiens)", "observed-measurement": "< 100 µM"}

Field request: IC50 | item: COc1ccc(N(CCCl)CCCl)cc1C[C@H](N)CC(=O)O
< 100 µM

Hey, just so you know, these numbers are from patent US10017459B2.
